tested on: PIM2; conditions: concentration: 1 μM, replicates: in singlicate; n = 1;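 also: KINOMEscan kinase panel screen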
For each of the molecules below, state its %Inh.
One number for each entry, in %.

Use the examples below as a reference point.
molecule	unit.tag	%Inh
CS(=O)(=O)c1cccc(CNc2nc(Nc3ccc4c(c3)CCC(=O)N4)ncc2C(F)(F)F)c1	%	0
CC(C)(C)c1ccc(C(=O)Nc2cn3cc(-n4ccnc4)ccc3n2)cc1	%	0
COC(=O)Nc1nc2ccc(Oc3ccc(NC(=O)Nc4cc(C(F)(F)F)ccc4F)cc3)cc2[nH]1.Cl	%	0
COc1cc(Nc2ccnc3cc(-c4ccncc4)ccc23)cc(OC)c1OC.Cl	%	0
COc1ccc(C)c(Nc2ccnc(Nc3ccc(-c4cnc[nH]4)cc3)n2)c1.Cl	%	9

Consider the following items and state reported %Inh for each.
1. Cl.Cl.NC(CNC(=O)c1cc(Br)c(-c2ccnc3[nH]ccc23)s1)c1ccccc1 (stereo not shown)
2. Cc1ccc(-c2ccc3occ(-c4ccc(S(C)=O)cc4)c3c2)nn1 (stereo not shown)

1. 0
2. 9

###

For each of the compounds below, state its %Inh.
system: TSSK1B; conditions: concentration: 1 μM, replicates: in singlicate; n = 1
One number for each entry, in %.

Use the examples below as a reference point.
compound	%Inh / %
CN(c1ccc2c(c1)nc(NCc1ccccc1)n2C)c1ccnc(Nc2ccc(CS(C)(=O)=O)cc2)n1.Cl	0
O=C(Nc1n[nH]c2nc(-c3ccccc3O)ccc12)C1CC1	0
COC(=O)Nc1nc2ccc(Oc3ccc(NC(=O)Nc4cc(C(F)(F)F)ccc4F)cc3)cc2[nH]1.Cl	100
COC(=O)Nc1nc2cc(Oc3ccc(NC(=O)Nc4cccc(SC)c4)cc3)ccc2[nH]1.Cl	0
COc1ccc(C)c(Nc2ccnc(Nc3ccc(-c4cnc[nH]4)cc3)n2)c1.Cl	10

Consider the following items and state reported %Inh for each.
1. Nc1cccc(-c2ccc3c(N)n[nH]c3c2)c1
2. Nc1ncnc2scc(-c3ccc(NC(=O)Cc4cc(F)ccc4F)cc3)c12.O=C(O)C(F)(F)F
3. CNc1nccc(-c2ccc3c(N)n[nH]c3c2)n1
4. O=C(O)C(F)(F)F.O=c1[nH]ccc2nc(N[C@@H]3CCNC3)nc(Nc3ccc4c(c3)S(=O)(=O)CC4)c12
5. CCn1c(-c2nonc2N)nc2c(-c3ccccc3)ncc(OCCCN)c21.O=C(O)C(F)(F)F.O=C(O)C(F)(F)F
6. Cn1cc(-c2ccc3c(c2)CCN3C(=O)Cc2cc(F)cc(F)c2F)c2c(N)ncnc21
7. Fc1cc(Cl)ccc1Nc1ccnc2cc(-c3ccc(CN4CCSCC4)o3)ccc12
8. NCCC(NC(=O)c1cc(Br)c(-c2ccnc3[nH]ccc23)s1)c1ccccc1.O=C(O)C(F)(F)F.O=C(O)C(F)(F)F (stereo not shown)

[0, 0, 0, 69, 11, 0, 0, 0]

###

tested on: MAP3K4; conditions: concentration: 1 μM, replicates: in singlicate; n = 1
Hi! Could you tag entries with %Inh below 6% as 1 (yes), and those at or above as 0 (no)? Much appreciated.

Solved entries:
smiles.input	experimental.system	classification
CCn1cnc2c(NCc3ccccc3)ncnc21	MAP3K4	1 (yes)
COc1ccc(C2=C(Nc3cccc(O)c3)C(=O)NC2=O)cc1	MAP3K4	1 (yes)
Cn1cc(-c2cnc(N)c3c(-c4ccc5c(c4)CCN5C(=O)Cc4ccccc4)csc23)cn1	MAP3K4	0 (no)
Cc1ccc(NC(=O)c2ccnc(N3CCCCC3)c2)cc1-c1ccc(C(=O)NCC2CC2)cc1	MAP3K4	1 (yes)
N#CC1(c2cccc(C(=O)Nc3cccc(Oc4ccc5nc(NC(=O)C6CC6)sc5n4)c3)c2)CC1	MAP3K4	0 (no)

Problem: For the compound `CC(=O)Nc1cn2nc(Oc3cccc(NC(=O)c4cccc(C(F)(F)F)c4)c3)ccc2n1` , is %Inh under 6%?
0 (no)

Problem: For the compound `O=C(Nc1n[nH]c2nc(-c3ccccc3)ccc12)C1CC1` , is %Inh under 6%?
0 (no)

###

system: ITK; details: concentration: 1 μM, replicates: in singlicate; n = 1
For each of the compounds below, state its %Inh.
One number for each entry, in %.

smiles.input	unit.tag	%Inh
COc1ccc(C2=C(Nc3cccc(O)c3)C(=O)NC2=O)cc1	%	7
Cc1cccc(Nc2nc(NCCN)ncc2C(N)=O)c1	%	8
COc1cccc(NC(=O)NCCNc2ccnc(Nc3ccc(F)cc3)n2)c1	%	6

Consider the following items and state reported %Inh for each.
1. O=C1NC(=O)C(c2ccccc2Cl)=C1Nc1cccc(Cl)c1
2. COc1cccc(CC(=O)N2CCc3cc(-c4cn(C)c5ncnc(N)c45)ccc32)c1
3. Cc1cc(-c2c(-c3ccc(F)cc3)ncn2CCCN2CCOCC2)nc(N)n1
4. Cc1cccc(Nc2nc(N[C@H]3CCCC[C@H]3N)ncc2C(N)=O)c1.Cl
5. CC(=O)Nc1cn2nc(Oc3cccc(NC(=O)c4cccc(C(F)(F)F)c4)c3)ccc2n1
6. CN(c1ccc(F)c(NC(=O)c2cccc(OC(C)(C)C#N)c2Cl)c1)c1ccc2nc(NC(=O)C3CC3)sc2n1

[14, 12, 6, 29, 0, 0]

Consider the following items and state reported %Inh for each.
1. CCNC(=O)/C=C/c1n[nH]c2cc(Sc3ccccc3C(=O)NC)ccc12
2. COC(=O)Nc1nc2ccc(Oc3ccc(NC(=O)Nc4cc(C(F)(F)F)ccc4F)cc3)cc2[nH]1.Cl
3. CN(c1ccc(NC(=O)N2CCN(CCCN3CCOCC3)CC2)cc1)c1ccnc(Nc2ccc(CS(C)(=O)=O)cc2)n1.Cl
4. Cn1cc(-c2ccc3c(c2)CCN3C(=O)Cc2cc(F)cc(C(F)(F)F)c2)c2c(N)ncnc21
5. COc1ccc(NC(=O)c2ccoc2)cc1-c1ccc(C(=O)NCC2CC2)cc1

1. 0
2. 0
3. 0
4. 5
5. 4

###

tested on: LIMK1; details: concentration: 1 μM, replicates: in singlicate; n = 1
measured.parameter: %Inh
// unit must come after the numeric part

molecule	%Inh
Cc1cccc(Nc2nc(N[C@H]3CCCC[C@H]3N)ncc2C(N)=O)c1.Cl [GSK986310]	15%
Cc1ccccc1CC(=O)N1CCc2cc(-c3cn(C)c4ncnc(N)c34)ccc21 [GSK2603346]	0%
COc1cc(Nc2nccc(N3CCC(NS(=O)(=O)c4ccc(NC(C)=O)cc4)CC3)n2)cc(OC)c1OC [GSK1379825]	93%

Consider the following items and state reported %Inh for each.
1. CS(=O)(=O)c1cccc(CNc2nc(Nc3ccc4c(c3)CCC(=O)N4)ncc2C(F)(F)F)c1
2. CC(=O)Nc1cn2nc(Oc3cccc(NC(=O)c4cccc(C(F)(F)F)c4)c3)ccc2n1

1. 0%
2. 0%

###

tested on: WNK4; details: concentration: 1 μM, replicates: in singlicate; n = 1
measured.parameter: %Inh
// unit must come after the numeric part

compound	measured.parameter	reported.measurement
N#CC1(c2cccc(C(=O)Nc3cccc(Oc4ccc5nc(NC(=O)C6CC6)sc5n4)c3)c2)CC1	%Inh	0%

Consider the following items and state reported %Inh for each.
1. O=C(Nc1n[nH]c2nc(-c3ccccc3O)ccc12)C1CC1 [SB-711880]
2. CC(C)NCC(Cc1ccccc1)NC(=O)c1cc(Br)c(-c2ccnc3[nH]ccc23)s1.Cl.Cl (stereo not drawn) [GSK1383281]
3. CN(C)CCNS(=O)(=O)c1ccc(-c2ccnc3[nH]ccc23)cc1 [GSK977620]
4. Nc1ncc(-c2cn[nH]c2)c2scc(-c3ccc4c(c3)CCN4C(=O)Cc3ccccc3)c12 [GSK2593067]
5. CNc1nccc(-c2ccc3c(N)n[nH]c3c2)n1 [GSK2206003]
6. COc1cccc(CC(=O)N2CCc3cc(-c4cn(C)c5ncnc(N)c45)ccc32)c1 [GSK2608899]
7. CC(=O)Nc1cn2nc(Oc3cccc(NC(=O)c4cccc(C(F)(F)F)c4)c3)ccc2n1
8. Cl.Cl.NC(CNC(=O)c1cc(Br)c(-c2ccnc3[nH]ccc23)s1)c1ccccc1 (stereo not drawn) [GSK1322949]

1: 0%; 2: 18%; 3: 0%; 4: 23%; 5: 2%; 6: 12%; 7: 0%; 8: 20%

Consider the following items and state reported %Inh for each.
1. O=C(Nc1n[nH]c2nc(-c3cccc(O)c3)ccc12)C1CC1 [SB-711805]
2. Cc1ccc(NC(=O)c2cccc(N3CCCCC3)c2)cc1-c1ccc(C(=O)NCC2CC2)cc1 [GSK1917008]
3. O=C1NC(=O)C(c2ccccc2Cl)=C1Nc1cccc(Cl)c1 [SB-342409]

63%
10%
1%

###

For each of the compounds below, state its %Inh.
system: ICK; settings: concentration: 1 μM, replicates: in singlicate; n = 1
Numbers only, in %.

compound	reported.measurement
CCNc1nccc(-c2c(-c3ccc(F)cc3)ncn2C2CCN(C)CC2)n1	0
COc1cc(Nc2nccc(N3CCC(NC(=O)Nc4ccc5c(c4)OCO5)C3)n2)cc(OC)c1OC (stereo not shown) [GSK1379766]	26
CSc1ccc(NC2=C(c3ccc(Cl)cc3)C(=O)NC2=O)cc1 [SB-317658]	19
N#Cc1cnc2cc(-c3cnc(CNCCN4CCOCC4)s3)ccc2c1Nc1ccc(Oc2ccccc2)cc1 [GW664114]	0
Cl.Cl.NC(CNC(=O)c1cc(Br)c(-c2ccnc3[nH]ccc23)s1)c1ccccc1 (stereo not shown) [GSK1322949]	0
Cc1ccc(NC(=O)c2cccc(N3CCCCC3)c2)cc1-c1ccc(C(=O)NCC2CC2)cc1 [GSK1917008]	23
N#CC1(c2cccc(C(=O)Nc3cccc(Oc4ccc5nc(NC(=O)C6CC6)sc5n4)c3)c2)CC1	0
NCCC(NC(=O)c1cc(Br)c(-c2ccnc3[nH]ccc23)s1)c1ccccc1.O=C(O)C(F)(F)F.O=C(O)C(F)(F)F (stereo not shown) [GSK1307810]	0

Consider the following items and state reported %Inh for each.
1. Cc1ccc(-c2ccc3occ(-c4ccc(S(C)=O)cc4)c3c2)nn1 (stereo not shown)
2. Cn1cc(-c2ccc3c(c2)CCN3C(=O)Cc2cc(F)cc(C(F)(F)F)c2)c2c(N)ncnc21 [GSK2635225]
3. O=C(Nc1n[nH]c2nc(-c3ccccc3O)ccc12)C1CC1 [SB-711880]

0
0
26

Consider the following items and state reported %Inh for each.
1. Cc1ccccc1CC(=O)N1CCc2cc(-c3cn(C)c4ncnc(N)c34)ccc21 [GSK2603346]
2. Cl.O=C(Nc1ccc(Oc2ccc3[nH]c(NC(=O)c4ccco4)nc3c2)cc1)Nc1cc(C(F)(F)F)ccc1F [GW683134]

[0, 0]

Data provenance: paper PMC5540273
